Every entry's value here was drawn from PubChem BioAssay (NCI).

Assay: NCI Yeast Anticancer Drug Screen. Data for the mec2-1 strain (AID 157)
Conditions: S. cerevisiae mec2-1 strain, at 50.0 µM, stronger effect = higher value
The panel holds about 79,000 compounds, 15% with a hit somewhere; the sample as a whole holds those more often.
Kindly state growth inhibition for each of the entries shown.
Answers are plain numbers, in %.

Known results for molecules:
N=c1c2ncn(C3OC(COP(=O)(O)O)C(O)C3O)c2ncn1O (stereo not given)
0
Fc1ccc(C(c2ccc(F)cc2)C(F)(F)F)cc1
-20.3
Cn1c(=O)c2c(n(C)c1=O)[n+]([O-])c([N+]1([O-])CCOCC1)n2C
-6.3
O=C(CC(=O)CC(O)(C(F)(F)F)C(F)(F)F)CC(O)(C(F)(F)F)C(F)(F)F
65.1

Ask: Give reported growth inhibition value for "O=C(NCCCCCCCCNC(=O)c1cccc2ccccc12)c1cccc2ccccc12"
Reply: 25
